Source listed as patent US5869477A.

Kindly supply the reported Cmax values for the records listed here.
# experimentNotes: bioavailability indices in infected mice, one-compartment oral model
# Design: species or system I.C.R. mouse
# appliedConditions: mouse, in vivo, po, 40 mg/kg
Form field: result (number plus unit)

Cc1oc(=O)oc1COC(=O)C1=C([C@H](O)C(C)C)[C@H](C)[C@@H]2[C@@H]([C@@H](C)O)C(=O)N12 | 8770 ng/mL

Now for another entry.
[Q] Given the compound CC(C)OC(=O)OC(C)OC(=O)C1=C([C@H](O)C(C)C)[C@H](C)[C@@H]2[C@@H]([C@@H](C)O)C(=O)N12 (some centres unmarked) , what is its reported Cmax?
[A] 10400 ng/mL
